# Test system: 276233-004-R-J1-PDC complex spheroid viability;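 note: spheroids exposed to drugs for seven days; 100% = DMSO vehicle control viability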
# Assay method text: Anticancer human tumor 276233-004-R-J1-PDC patient-derived colon adenocarcinoma cell line growth inhibition [GQUAD]
# Measurement conditions: second compound 0.316 µM; first compound 0.0316 µM; active compounds read low
Measured attribute: viability, T/C (%)
One number for each entry, in %.

# annotated cases, reported viability, T/C shown
Compound | System name | viability, T/C, %
COc1ncnc(C2CC2)c1-c1ncc2cnn(Cc3ccc(-c4nc(C(F)(F)F)cn4C(C)C)cc3)c2n1 + Cc1[nH]c2ccc(F)cc2c1-c1nc2c3cccnc3c3ncccc3c2[nH]1 | 276233-004-R-J1-PDC complex spheroid viability | 70
CC1COCCN1c1cc(C2(O)CC3CCC(C2)O3)c2cnn(-c3ccn[nH]3)c2n1 (configuration not stated) + Cc1cnc(CNC(=O)c2c(=O)c3ccc(N4CCCN(C)CC4)nc3n3c2sc2ccccc23)cn1 | 276233-004-R-J1-PDC complex spheroid viability | 71.1
O=C(NO)c1cnc(N2CCN(S(=O)(=O)c3ccc4ccccc4c3)CC2)nc1 + CN(C)c1ccc(Nc2c3ccc(NC(=O)CCN4CCCC4)cc3nc3cc(NC(=O)CCN4CCCC4)ccc23)cc1 | 276233-004-R-J1-PDC complex spheroid viability | 61
CC[C@@]1(O)C(=O)OCc2c1cc1n(c2=O)Cc2cc3c(CN(C)C)c(O)ccc3nc2-1 + CN(C)c1ccc(Nc2c3ccc(NC(=O)CCN4CCCC4)cc3nc3cc(NC(=O)CCN4CCCC4)ccc23)cc1 | 276233-004-R-J1-PDC complex spheroid viability | 58.5
CC(C)n1c(=O)n(C)c2cnc3cc(F)c(-c4ccc(OCCCN5CCCCC5)nc4)cc3c21 + CN(C)c1ccc(Nc2c3ccc(NC(=O)CCN4CCCC4)cc3nc3cc(NC(=O)CCN4CCCC4)ccc23)cc1 | 276233-004-R-J1-PDC complex spheroid viability | 86.7
CCCS(=O)(=O)Nc1ccc(F)c(C(=O)c2c[nH]c3ncc(-c4ccc(Cl)cc4)cc23)c1F + CN(C)c1ccc(Nc2c3ccc(NC(=O)CCN4CCCC4)cc3nc3cc(NC(=O)CCN4CCCC4)ccc23)cc1 | 276233-004-R-J1-PDC complex spheroid viability | 72.9
CC1COCCN1c1cc(C2(S(C)(=N)=O)CC2)nc(-c2ccnc3[nH]ccc23)n1 (configuration not stated) + Cc1cnc(CNC(=O)c2c(=O)c3ccc(N4CCCN(C)CC4)nc3n3c2sc2ccccc23)cn1 | 276233-004-R-J1-PDC complex spheroid viability | 75.2
C#Cc1c(F)ccc2cc(O)cc(-c3ncc4c(N5CC6CCC(C5)N6)nc(OCC56CCCN5CC(F)C6)nc4c3F)c12 (configuration not stated) + Cc1cnc(CNC(=O)c2c(=O)c3ccc(N4CCCN(C)CC4)nc3n3c2sc2ccccc23)cn1 | 276233-004-R-J1-PDC complex spheroid viability | 84.1
COc1cc(C2c3cc4c(cc3C(OC3OC5COC(C)OC5C(O)C3O)C3COC(=O)C23)OCO4)cc(OC)c1O (configuration not stated) + Cc1[nH]c2ccc(F)cc2c1-c1nc2c3cccnc3c3ncccc3c2[nH]1 | 276233-004-R-J1-PDC complex spheroid viability | 79.8
COc1ncnc(C2CC2)c1-c1ncc2cnn(Cc3ccc(-c4nc(C(F)(F)F)cn4C(C)C)cc3)c2n1 + CN(C)c1ccc(Nc2c3ccc(NC(=O)CCN4CCCC4)cc3nc3cc(NC(=O)CCN4CCCC4)ccc23)cc1 | 276233-004-R-J1-PDC complex spheroid viability | 69.4

Hi there! I need viability, T/C for each item below, if you can.
1. C=CC(=O)N1CCN(c2nc(=O)n(-c3c(C)ccnc3C(C)C)c3nc(-c4c(O)cccc4F)c(F)cc23)C(C)C1 (configuration not stated) + Cc1cnc(CNC(=O)c2c(=O)c3ccc(N4CCCN(C)CC4)nc3n3c2sc2ccccc23)cn1
2. CC(C)(O)C1CCC(Nc2ccc3ncc(-c4cccc(C(F)(F)F)c4)n3n2)CC1 (configuration not stated) + Cc1cnc(CNC(=O)c2c(=O)c3ccc(N4CCCN(C)CC4)nc3n3c2sc2ccccc23)cn1

Solution:
1: 80.6; 2: 84.3
